System: CCRF-CEM cell line
Measurement notes: Ex vivo cytotoxicity assay, leukemia cell lines
Type: cell-based
Experimental parameters: Homo sapiens; Table 4: CCRF-CEM, T-ALL (child), AKR1C3 expression Strong; CellTiter-Glo
Measured quantity: IC50 (nM)
Express your answer in nM, writing the number without its unit.

[in] # query: IC50 of entry C[C@H](OP(=O)(N1CC1)N1CC1)c1ccc([N+](=O)[O-])c(Oc2cccc(C(=O)N(C)C)c2)c1 [OBI-3424]
[out] 3.7

---

Test system: Jurkat cell line
Measurement notes: Ex vivo cytotoxicity assay, leukemia cell lines
Format: cell-based
Experimental parameters: Homo sapiens; Table 5: Jurkat, T-ALL (pediatric), 72 h; AKR1C3 expression Low
Measured quantity: IC50
Give the figure together with its unit, number first.

[in] # query: IC50 of entry C[C@H](OP(=O)(N1CC1)N1CC1)c1ccc([N+](=O)[O-])c(Oc2cccc(C(=O)N(C)C)c2)c1
[out] 40 nM

---

System: GR-ST cell line
Measurement notes: Ex vivo cytotoxicity assay, leukemia cell lines
Assay type: cell-based
Experimental parameters: Homo sapiens; Table 5: GR-ST, B-ALL (transfected with G-CSF), 72 h; AKR1C3 expression Medium
Measured quantity: pIC50
In simple prose, pIC50 is minus the logarithm base ten of a concentration in moles per litre.

[in] # query: pIC50 of entry C[C@H](OP(=O)(N1CC1)N1CC1)c1ccc([N+](=O)[O-])c(Oc2cccc(C(=O)N(C)C)c2)c1
[out] 8.00

---

Test system: Jurkat, clone E6-1 cell line
Measurement notes: Ex vivo cytotoxicity assay, leukemia cell lines
Assay type: cell-based
Experimental parameters: Homo sapiens; Table 4: Jurkat, Clone E6-1, T-ALL (child), AKR1C3 expression Medium; CellTiter-Glo
Method: Leukemia cell lines were suspended in RPMI medium supplemented with FBS (Biosera), while ALL PDX cells were cultured in QBSF medium (Quality Biological Inc.,) supplemented with Flt-3 ligand (20 ng/ml, BioNovus Life Sciences) or IL7 (10-20 ng/ml, Jomar Life Research). […] Viability was determined using Alamar Blue reduction assay or Cell Titer-Glo Luminescent Cell Viability Assay (Promega). […] The expression levels of AKR1C3 protein was determined by Western blot analysis. […]
Measured quantity: pIC50
In simple prose, pIC50 is minus the logarithm base ten of a concentration in moles per litre.

[in] # query: pIC50 of entry C[C@H](OP(=O)(N1CC1)N1CC1)c1ccc([N+](=O)[O-])c(Oc2cccc(C(=O)N(C)C)c2)c1
[out] 7.62

---

Tested on: NCIH2106 NSCLC cell line
Measurement notes: Ex vivo proliferation assay, 72 h exposure
Type: cell-based
Experimental parameters: Homo sapiens; NCIH2106, 72 h of exposure; read-out: 3424 IC50
Method: Exponentially growing cells were inoculated. After 24 h, the test compound OBI-3424 was added. After addition of the test compound OBI-3424, plates were incubated in a standard tissue incubator at 37° C. for the indicated hours. At the end of the experiment, viable cells were detected using the CellTiter Glo (CTG) assay kit or AlamarBlue. […]
Measured quantity: IC50

[in] # query: IC50 of entry C[C@H](OP(=O)(N1CC1)N1CC1)c1ccc([N+](=O)[O-])c(Oc2cccc(C(=O)N(C)C)c2)c1 [OBI-3424]
[out] > 1 µM

---

System: THP-1 cell line
Measurement notes: Ex vivo cytotoxicity assay, leukemia cell lines
Assay type: cell-based
Experimental parameters: Homo sapiens; Table 5: THP-1, AML (pediatric), 72 h; AKR1C3 expression Low
Measured quantity: IC50

[in] # query: IC50 of entry C[C@H](OP(=O)(N1CC1)N1CC1)c1ccc([N+](=O)[O-])c(Oc2cccc(C(=O)N(C)C)c2)c1 [OBI-3424]
[out] > 1000 nM
